Cited source: patent US20090175880A1

In this section we review reported koff values for a set of binders.
Molecular target: T1, soluble fusion protein comprising a DEC-205 extracellular domain (comprising all ten lectin-binding domains) … (human, UniProt O60449 28-1666)
T1 construct: not shown: antibody Fc domain
T1 sequence (O60449 28-1666 K1321N/Y1391H): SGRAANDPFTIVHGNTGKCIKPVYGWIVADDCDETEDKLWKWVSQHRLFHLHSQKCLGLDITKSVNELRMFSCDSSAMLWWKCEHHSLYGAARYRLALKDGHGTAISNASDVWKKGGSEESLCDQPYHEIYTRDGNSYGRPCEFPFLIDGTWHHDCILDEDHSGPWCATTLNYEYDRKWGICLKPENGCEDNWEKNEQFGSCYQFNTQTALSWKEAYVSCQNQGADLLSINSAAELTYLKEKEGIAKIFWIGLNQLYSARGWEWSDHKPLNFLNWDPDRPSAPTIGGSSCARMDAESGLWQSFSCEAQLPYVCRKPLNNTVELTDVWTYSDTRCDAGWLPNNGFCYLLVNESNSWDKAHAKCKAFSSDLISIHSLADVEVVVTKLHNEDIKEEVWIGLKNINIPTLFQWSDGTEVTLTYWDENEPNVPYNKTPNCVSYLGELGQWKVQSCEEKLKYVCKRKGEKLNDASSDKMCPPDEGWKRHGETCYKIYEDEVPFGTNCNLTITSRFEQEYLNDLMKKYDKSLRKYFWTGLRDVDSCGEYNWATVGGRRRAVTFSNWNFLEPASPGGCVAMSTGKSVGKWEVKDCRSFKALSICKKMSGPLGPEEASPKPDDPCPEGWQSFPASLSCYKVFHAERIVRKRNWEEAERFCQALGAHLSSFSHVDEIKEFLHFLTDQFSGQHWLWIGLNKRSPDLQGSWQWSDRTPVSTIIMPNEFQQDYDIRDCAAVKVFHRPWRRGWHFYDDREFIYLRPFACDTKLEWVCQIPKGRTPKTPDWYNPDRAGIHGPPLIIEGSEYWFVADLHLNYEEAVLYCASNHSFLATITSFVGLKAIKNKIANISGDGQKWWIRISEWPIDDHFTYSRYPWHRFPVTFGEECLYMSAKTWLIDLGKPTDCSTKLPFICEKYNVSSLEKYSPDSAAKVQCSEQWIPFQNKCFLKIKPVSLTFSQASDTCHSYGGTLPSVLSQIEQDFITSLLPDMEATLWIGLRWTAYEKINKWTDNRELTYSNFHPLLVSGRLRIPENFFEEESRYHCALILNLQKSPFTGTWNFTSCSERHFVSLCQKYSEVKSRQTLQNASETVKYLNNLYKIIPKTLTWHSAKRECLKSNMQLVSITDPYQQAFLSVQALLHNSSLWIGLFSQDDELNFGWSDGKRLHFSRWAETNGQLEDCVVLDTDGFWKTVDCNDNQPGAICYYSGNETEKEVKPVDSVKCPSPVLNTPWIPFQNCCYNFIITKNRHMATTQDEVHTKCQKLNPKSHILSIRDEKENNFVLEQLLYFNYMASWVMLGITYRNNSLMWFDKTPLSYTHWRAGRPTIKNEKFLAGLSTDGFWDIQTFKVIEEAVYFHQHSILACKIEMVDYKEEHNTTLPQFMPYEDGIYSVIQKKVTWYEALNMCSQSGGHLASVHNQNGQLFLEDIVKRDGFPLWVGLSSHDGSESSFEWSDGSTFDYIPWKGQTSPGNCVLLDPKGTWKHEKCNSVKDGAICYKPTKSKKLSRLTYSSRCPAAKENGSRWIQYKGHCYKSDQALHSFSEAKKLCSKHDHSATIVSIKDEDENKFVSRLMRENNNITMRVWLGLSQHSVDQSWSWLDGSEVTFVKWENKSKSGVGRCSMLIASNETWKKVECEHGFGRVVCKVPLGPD
Assay: SPR (Biacore 2000), DEC-205 fusion protein amine-coupled to CM5 chip, antibody flowed at 1.25-200 nM, 1:1 Langmuir fit, mean of two series
Give just the number in s⁻¹; leave the unit off.

{"columns": ["BINDER", "PARAMETER", "MEAS_VALUE"],
 "data": [
  ["3D6-2F4 (antibody, V domains shown, Human IgG (kappa) from a hybridoma, protein A purified; also called mAb #5; HuMab 3D6-2F4) VH: QVQLVESGGGVVQPGRSLRLSCAASGFIFSIYGMHWVRQAPGKGLEWVAVIWYDGSNKYYADSVKGRFTISRDNSKNTLYLQMNSLRAEDTAVYYCARAPHFDYWGQGTLVTVSS VL: DIQMTQSPSSLSASVGDRVTITCRASQGISSWLAWYQQKPEKAPKSLIYAASSLQSGVPSRFSGSGSGTDFTLTISSLQPEDFATYYCQQYNSYPYTFGQGTKLEIK", "koff", 0.00012],
  ["3G9-2D2 (antibody, V domains shown, Human IgG (kappa) from a hybridoma, protein A purified; also called mAb #8; HuMab 3G9-2D2) VH: QVQLVESGGGVVQPGRSLRLSCAASGFTFSNYGMYWVRQAPGKGLEWVAVIWYDGSNKYYADSVKGRFTISRDNSKNTLYLQMNSLRAEDTAVYYCARDLWGWYFDYWGQGTLVTVSS VL: EIVLTQSPATLSLSPGERATLSCRASQSVSSYLAWYQQKPGQAPRLLIYDASNRATGIPARFSGSGSGTDFTLTISSLEPEDFAVYYCQQRRNWPLTFGGGTKVEIK", "koff", 0.00019]
]}

Attention now turns to another entry.
QUERY: Could you please provide reported koff for 3C7-3A3 (antibody, V domains shown, Human IgG (kappa) from a hybridoma, protein A purified; also called mAb #3; HuMab 3C7-3A3) VH: QVQLVESGGGVVQPGRSLRLSCAASGFTFSSYNMHWVRQAPGKGLEWVAFIWYDGSNKYYGDSVKGRFTISRDNSKNTLYLQMNSLRAEDTAVYYCAREELGIGWYFDLWGRGTLVTVSS VL: EIVLTQSPATLSLSPGERATLSCRASQSVSSYLAWYQQKPGQAPRLLIYDASNRATGIPARFSGSGSGTDFTLTISSLEPEDFAVYYCQQRRTFGQGTKVEIK ? Thanks!
RESULT: 0.00076
